Type: in vivo, human
condition_notes: human, plasma, po, 300 mg
measured_parameter: AUC(0-inf) (ng·h/mL)
Numbers only; they are read as ng·h/mL.

Sample COC(=O)[C@H](c1ccccc1Cl)N1CCc2sccc2C1 [Clopidogrel, (+)-S clopidogrel bisulfate, reference compound] ; AUC(0-inf) observed: 21.8
